# experimental.system: UniProtKB P06213
# Sequence (P06213 1023-1298 limits assumed, species assumed): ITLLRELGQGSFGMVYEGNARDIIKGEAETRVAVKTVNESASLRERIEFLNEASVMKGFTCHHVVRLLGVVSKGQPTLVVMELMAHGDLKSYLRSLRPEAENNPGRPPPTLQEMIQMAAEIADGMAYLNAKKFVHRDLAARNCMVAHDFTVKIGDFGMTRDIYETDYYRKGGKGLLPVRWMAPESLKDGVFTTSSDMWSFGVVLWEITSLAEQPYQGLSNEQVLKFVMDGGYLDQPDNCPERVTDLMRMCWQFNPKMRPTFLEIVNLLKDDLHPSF
Provide the reported IC50 of each item.

Problem: Identify the measured IC50 of "Cc1ccc(OC[C@H](O)CNc2cc[nH]c(=O)c2-c2nc3c(C)c4c(cc3[nH]2)CN(C2CCN(C)CC2)C4=O)c(C)c1" for UniProtKB P06213.
Result: < 500 nM

Problem: Identify the measured IC50 of "O=C1c2cc3nc(-c4c(NC[C@@H](O)COc5c(F)ccc(Cl)c5F)cc[nH]c4=O)[nH]c3cc2C(=O)N1C1CCN(CCCO)CC1" for UniProtKB P06213.
Result: 500 to 5000 nM

Problem: Identify the measured IC50 of "CN(C)CC(C)(C)CN1C(=O)c2cc3nc(-c4c(NC[C@@H](O)c5cccc(Cl)c5)ccnc4O)[nH]c3cc2C1=O" for UniProtKB P06213.
Result: 500 to 5000 nM

Problem: Identify the measured IC50 of "O=C1c2cc3nc(-c4c(NC[C@@H](O)COc5c(F)ccc(Cl)c5F)cc[nH]c4=O)[nH]c3cc2C(=O)N1C1CCN(CCO)CC1" for UniProtKB P06213.
Result: 500 to 5000 nM

Problem: Identify the measured IC50 of "COc1ccc2c(ccn2C[C@H](O)CNc2cc[nH]c(=O)c2-c2nc3cc4c(cc3[nH]2)C(=O)N(C2CCN(C)CC2)C4=O)c1" for UniProtKB P06213.
Result: 500 to 5000 nM

Problem: Identify the measured IC50 of "CN1CCC(N2C(=O)c3cc4nc(-c5c(NC[C@@H](O)c6cccc(Cl)c6)cc[nH]c5=O)[nH]c4cc3C2=O)CC1" for UniProtKB P06213.
Result: < 500 nM

Problem: Identify the measured IC50 of CN1CCC(N2C(=O)c3cc4nc(-c5c(NCC(O)COc6ccc(Cl)cc6)cc[nH]c5=O)[nH]c4cc3C2=O)CC1 (stereo not shown) for UniProtKB P06213.
Result: 500 to 5000 nM

Problem: Identify the measured IC50 of "O=C1c2cc3nc(-c4c(NC[C@@H](O)c5cccc(Cl)c5)cc[nH]c4=O)[nH]c3cc2C(=O)N1CCCn1ccnc1" for UniProtKB P06213.
Result: 500 to 5000 nM

Problem: Identify the measured IC50 of "CCc1cc(C)ccc1OC[C@H](O)CNc1cc[nH]c(=O)c1-c1nc2cc3c(cc2[nH]1)CN(C1CCN(C)CC1)C3=O" for UniProtKB P06213.
Result: < 500 nM

Problem: Identify the measured IC50 of CN1CCC(N2C(=O)c3cc4nc(-c5c(NCC(O)COc6ccc(C(C)(C)C)cc6)cc[nH]c5=O)[nH]c4cc3C2=O)CC1 (stereo not shown) for UniProtKB P06213.
Result: 500 to 5000 nM

Problem: Identify the measured IC50 of "O=C1c2cc3nc(-c4c(NC[C@@H](O)COc5c(F)ccc(Cl)c5F)cc[nH]c4=O)[nH]c3cc2C(=O)N1CC1CCN(CCO)CC1" for UniProtKB P06213.
Result: < 500 nM

Problem: Identify the measured IC50 of "CCN1CCC(N2Cc3cc4nc(-c5c(NC[C@@H](O)COc6ccc(C)cc6C)cc[nH]c5=O)[nH]c4cc3C2=O)CC1" for UniProtKB P06213.
Result: 500 to 5000 nM

Problem: Identify the measured IC50 of "CN1CCC(N2Cc3cc4nc(-c5c(NC[C@@H](O)COc6ccc(F)cc6F)cc[nH]c5=O)[nH]c4cc3C2=O)CC1" for UniProtKB P06213.
Result: < 500 nM

---

Provide the reported IC50 of each item.
# experimental.system: IGF1R tyrosine kinase (Homo sapiens, UniProt P08069)
# Construct: 6×His- or GST-tagged kinase domain fragments of the corresponding RTKs expressed in baculovirus system; host or cells: baculovirus system
# Sequence (P08069 999-1274 limits assumed): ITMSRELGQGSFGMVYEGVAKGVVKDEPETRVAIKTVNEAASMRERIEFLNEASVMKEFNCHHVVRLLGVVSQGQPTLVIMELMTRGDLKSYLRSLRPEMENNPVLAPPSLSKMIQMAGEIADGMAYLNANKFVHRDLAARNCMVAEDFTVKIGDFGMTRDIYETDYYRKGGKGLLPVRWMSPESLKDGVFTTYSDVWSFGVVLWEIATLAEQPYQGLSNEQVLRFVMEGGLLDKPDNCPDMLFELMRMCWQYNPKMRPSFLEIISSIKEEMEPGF
# assay.explanation: IGF1R tyrosine kinase assay (Kinase-Glo ATP depletion or PT66/PT100 AlphaScreen)
# experimental.setup: biochemical tyrosine kinase assay

Problem: Tell me the measured IC50 of "CN1CCC(N2Cc3cc4nc(-c5c(NC[C@@H](O)COc6ccc(F)cc6F)cc[nH]c5=O)[nH]c4cc3C2=O)CC1" , please.
Result: < 0.5 µM

Problem: Tell me the measured IC50 of "COCCCN1C(=O)c2cc3nc(-c4c(NC[C@@H](O)COc5ccc(C)cc5C)cc[nH]c4=O)[nH]c3cc2C1=O" , please.
Result: > 15 µM

Problem: Tell me the measured IC50 of "CN1CCC(N2C(=O)c3cc4nc(-c5c(N[C@H](CO)Cc6c[nH]cn6)cc[nH]c5=O)[nH]c4cc3C2=O)CC1" , please.
Result: > 15 µM

Problem: Tell me the measured IC50 of "Cc1ccc(OC[C@H](O)CNc2cc[nH]c(=O)c2-c2nc3cc4c(cc3[nH]2)C(=O)N(C2CCN(CCN(C)C)CC2)C4=O)c(C)c1" , please.
Result: < 0.5 µM

---

readout: IC50

Problem: Identify the measured IC50 of "Cc1ncsc1CCN1C(=O)c2cc3nc(-c4c(NC[C@@H](O)c5cccc(Cl)c5)cc[nH]c4=O)[nH]c3cc2C1=O" for IGF1R tyrosine kinase (Homo sapiens, UniProt P08069).
Result: 5000 to 15000 nM

Problem: Identify the measured IC50 of "Cc1ccc(Cl)c(C)c1OC[C@H](O)CNc1cc[nH]c(=O)c1-c1nc2cc3c(cc2[nH]1)C(=O)N(C1CCN(C)CC1)C3=O" for IGF1R tyrosine kinase (Homo sapiens, UniProt P08069).
Result: 500 to 5000 nM

Problem: Identify the measured IC50 of "Cc1c(Cl)cccc1OC[C@H](O)CNc1cc[nH]c(=O)c1-c1nc2cc3c(cc2[nH]1)C(=O)N(C1CCN(C)CC1)C3=O" for IGF1R tyrosine kinase (Homo sapiens, UniProt P08069).
Result: < 500 nM

Problem: Identify the measured IC50 of "CN1CCC(N2C(=O)c3cc4nc(-c5c(NCCc6c[nH]cn6)cc[nH]c5=O)[nH]c4cc3C2=O)CC1" for IGF1R tyrosine kinase (Homo sapiens, UniProt P08069).
Result: 500 to 5000 nM

Problem: Identify the measured IC50 of "Cc1ccc(OC[C@H](O)CNc2cc[nH]c(=O)c2-c2nc3c(C)c4c(cc3[nH]2)CN(C2CCN(C)CC2)C4=O)c(C)c1" for IGF1R tyrosine kinase (Homo sapiens, UniProt P08069).
Result: < 500 nM

Problem: Identify the measured IC50 of "COc1ccc(OC[C@H](O)CNc2cc[nH]c(=O)c2-c2nc3c(C)c4c(cc3[nH]2)C(=O)N(C2CCN(C)CC2)C4=O)c(C)c1Cl" for IGF1R tyrosine kinase (Homo sapiens, UniProt P08069).
Result: < 500 nM

Problem: Identify the measured IC50 of CN1CCC(N2C(=O)c3cc4nc(-c5c(NCC(O)c6ccncc6)cc[nH]c5=O)[nH]c4cc3C2=O)CC1 (stereo not shown) for IGF1R tyrosine kinase (Homo sapiens, UniProt P08069).
Result: 500 to 5000 nM

Problem: Identify the measured IC50 of "CN1CCC(N2Cc3cc4nc(-c5c(NC[C@@H](O)COc6cc(F)ccc6Cl)cc[nH]c5=O)[nH]c4cc3C2=O)CC1" for IGF1R tyrosine kinase (Homo sapiens, UniProt P08069).
Result: < 500 nM

Problem: Identify the measured IC50 of "CN1CCC(N2C(=O)c3cc4nc(-c5c(NC[C@@H](O)c6cccc(Cl)c6)cc[nH]c5=O)[nH]c4cc3C2=O)CC1" for IGF1R tyrosine kinase (Homo sapiens, UniProt P08069).
Result: < 500 nM

Problem: Identify the measured IC50 of "O=C1c2cc3nc(-c4c(NC[C@@H](O)c5cccc(Cl)c5)cc[nH]c4=O)[nH]c3cc2C(=O)N1C(CO)CO" for IGF1R tyrosine kinase (Homo sapiens, UniProt P08069).
Result: < 500 nM

Problem: Identify the measured IC50 of "Cc1ccc(OC[C@H](O)CNc2cc[nH]c(=O)c2-c2nc3cc4c(c(C)c3[nH]2)CN(C2CCN(C)CC2)C4=O)c(C)c1" for IGF1R tyrosine kinase (Homo sapiens, UniProt P08069).
Result: < 500 nM

Problem: Identify the measured IC50 of "CN1CCC(N2C(=O)c3cc4nc(-c5c(NC[C@@H](O)COc6ccc7ccccc7c6)cc[nH]c5=O)[nH]c4cc3C2=O)CC1" for IGF1R tyrosine kinase (Homo sapiens, UniProt P08069).
Result: 500 to 5000 nM

Problem: Identify the measured IC50 of "Cc1c(Cl)cccc1OC[C@H](O)CNc1cc[nH]c(=O)c1-c1nc2cc3c(cc2[nH]1)C(=O)N(CCCN1CCCC1)C3=O" for IGF1R tyrosine kinase (Homo sapiens, UniProt P08069).
Result: < 500 nM

Data provenance is patent US8063225B2.
